Tested on: Aβ42 production in primary nerve cells
procedure details: Measurement of amyloid β production inhibition rate using primary nerve cell (Aβ42 sandwich ELISA)
Assay type: cell-based
conditions: Rattus norvegicus, 72 h, primary nerve cells from cerebral cortex of SD rat fetus; cultured 3 days with compound; culture supernatant, sandwich ELISA for Aβ42; read-out: Aβ42 production inhibitory activity IC50
readout type: IC50 (nM)

1. COc1nc(-c2nnc3n2CCC[C@]3(Oc2cc(F)c(F)c(F)c2)C(C)(C)O)ccc1-n1cnc(C)c1: 49
2. COc1nc(-c2nnc3n2CCCC3(Oc2ccc(F)c(F)c2)C(C)(C)O)ccc1-n1cnc(C)c1 (stereo not drawn): 123
3. COc1cc(-c2nnc3n2CCCC3(Oc2ccc(C(F)(F)F)cn2)C(C)(C)O)ccc1-c1cnc(C)o1 (stereo not drawn): 34
4. COc1cc(-c2nnc3n2CCCC3(Oc2cc(F)c(F)c(F)c2)C(C)(C)O)ccc1-c1cnn(C)c1 (stereo not drawn): 214
5. COc1cc(-c2nnc3n2CCCC3(Sc2ccc(F)c(F)c2)C(C)(C)O)ccc1-c1cnc(C)o1 (stereo not drawn): 41

[A] COc1cc(-c2nnc3n2CCCC3(Oc2cccc(C(F)(F)F)c2)C(C)(C)O)ccc1-c1cnc(C)o1 (stereo not drawn)
[B] COc1cc(-c2nnc3n2CCCC3(Oc2ccc(F)c(F)c2)C(C)(C)O)ccc1-c1cnc(C)o1 (stereo not drawn)
Thinking about recorded IC50 values, which is higher, A or B ? In your reply, give the label of the chosen option. B
(B: 59 nM, A: 41 nM)

###

System: Aβ42 production in primary nerve cells
procedure details: Measurement of amyloid β production inhibition rate using primary nerve cell (Aβ42 sandwich ELISA)
Type: cell-based
conditions: Rattus norvegicus, 72 h, primary nerve cells from cerebral cortex of SD rat fetus; cultured 3 days with compound; culture supernatant, sandwich ELISA for Aβ42; read-out: Aβ42 production inhibitory activity IC50
readout type: IC50 (nM)

1) COc1nc(-c2nnc3n2CCCC3(Oc2cc(F)c(F)c(F)c2)C(C)(C)O)ccc1-n1cnc(C)c1 (stereo not shown) [Example 134]: 42
2) COc1cc(-c2nnc3n2CC(C)CC3(Oc2ccc(F)c(F)c2)C(C)(C)O)ccc1-c1cnc(C)o1 (stereo not shown) [Example 150]: 118
3) COc1cc(-c2nnc3n2CCCC3(OCc2ccc(F)c(F)c2)C(=O)N(C)CC(F)(F)F)ccc1-c1cnc(C)o1 (stereo not shown) [Example 108]: 67
4) COc1cc(-c2nnc3n2CCCC3(Oc2cc(F)c(F)c(F)c2)C(C)(C)O)ccc1-c1ccnc(C)c1 (stereo not shown) [Example 174]: 44

[P] COc1cc(-c2nnc3n2CCCC3(Oc2cc(F)c(F)c(F)c2)C(=O)N(C)CC(F)(F)F)ccc1-c1cnc(C)o1 (stereo not shown) [Example 160]
[Q] Cc1ncc(-c2ccc(-c3nnc4n3CCCC4(Oc3cc(F)c(F)c(F)c3)C(C)(C)O)cc2)o1 (stereo not shown) [Example 178]
[R] COc1cc(-c2nnc3n2CCCC3(Nc2cc(F)c(F)c(F)c2)C(C)(C)O)ccc1-c1cnc(C)o1 (stereo not shown) [Example 181]
Please list the entries, largest IC50 first. Put the labels in the requested order and list them out. Q, R, P
(Q: 168 nM, R: 58 nM, P: 19 nM)

###

Tested on: Aβ42 production in primary nerve cells
procedure details: Measurement of amyloid β production inhibition rate using primary nerve cell (Aβ42 sandwich ELISA)
Format: cell-based
conditions: Rattus norvegicus, 72 h, primary nerve cells from cerebral cortex of SD rat fetus; cultured 3 days with compound; culture supernatant, sandwich ELISA for Aβ42; read-out: Aβ42 production inhibitory activity IC50
pIC50: −log10 of the molar value.
readout type: pIC50

Some entries whose results are on file:
1) COc1cc(-c2nnc3n2CCC[C@]3(Oc2cc(F)c(F)c(F)c2)C(C)(C)O)ccc1-c1cnc(C)o1 [Example 122]: 7.72
2) COc1cc(-c2nnc3n2CCCC3(Cc2ccc(F)c(F)c2)C(=O)N(C)CC(F)(F)F)ccc1-c1cnc(C)o1 (centres unmarked) [Example 60]: 7.30
3) COc1cc(-c2nnc3n2CCCC3(COc2ccc(Cl)cc2)C(C)(C)O)ccc1-c1cnc(C)o1 (centres unmarked) [Example 127]: 7.36

[I] COc1cc(-c2nnc3n2CCCC3(Oc2cc(F)c(F)c(F)c2)C(C)(C)O)c(F)cc1-c1cnc(C)o1 (centres unmarked) [Example 162]
[II] COc1cc(-c2nnc3n2CCCC3(Oc2ccc(Cl)c(C(F)(F)F)c2)C(C)(C)O)ccc1-n1cnc(C)n1 (centres unmarked) [Example 139]
Thinking about recorded pIC50 values, which is higher, I or II ? In your reply, give the label of the chosen option. II
